- studyTarget: PHD domain of UHRF1 (UHRF1PHD)
- assayDetails: ITC; 25 °C, MicroCal PEAQ-ITC; protein in the cell titrated with 19 injections of peptide
Non-standard residues stand in square brackets, D forms with d. Primed or numbered codes have the meaning given here. No end group written: not given here. *: point of attachment. R(dz)″ = photo-arginine carrying a diazirine photo-crosslinker; Biotin = O=C1N[C@H]2[C@H](CS[C@H]2CCCCC(=O)*)N1
assayMetric: Kd (µM)
Report the figure in µM without appending any unit label.

input: // returns reported Kd for input A[R(dz)″]TKQTARKSTGGK(Biotin)A-NH2 [H3K4‐R2dz (probe 1)]
output: 10.6
